- EXPERIMENT: Open-label clinical pharmacokinetic study of oral XBD173 and etifoxine in healthy volunteers (plasma LC-MSMS)
- Type: in vivo, human
- STUDY CONDITIONS: human, plasma, po, 90 mg, 90mg XBD173 single oral dose; 180 mins; participant 1
MEASUREMENT NAME: concentration at 180 min
I'd appreciate it if you wrote the number followed by its unit.

(Q) // lookup concentration at 180 min for `CCN(Cc1ccccc1)C(=O)Cn1c(=O)n(C)c2cnc(-c3ccccc3)nc21`
(A) 43.3 ng/mL

----------
- EXPERIMENT: Open-label clinical pharmacokinetic study of oral XBD173 and etifoxine in healthy volunteers (plasma LC-MSMS)
- Assay type: in vivo, human
- STUDY CONDITIONS: human, plasma, po, 90 mg, 90 mg XBD173 single oral dose; participant 2
MEASUREMENT NAME: Cmax (ng/mL)
Number in ng/mL, nothing else.

(Q) // lookup Cmax for `CCN(Cc1ccccc1)C(=O)Cn1c(=O)n(C)c2cnc(-c3ccccc3)nc21`
(A) 25

----------
- EXPERIMENT: Open-label clinical pharmacokinetic study of oral XBD173 and etifoxine in healthy volunteers (plasma LC-MSMS)
- Type: in vivo, human
- STUDY CONDITIONS: human, plasma, po, 90 mg, 90 mg XBD173 single oral dose; Median of 4 participants
MEASUREMENT NAME: Cmax (ng/mL)
Number in ng/mL, nothing else.

(Q) // lookup Cmax for `CCN(Cc1ccccc1)C(=O)Cn1c(=O)n(C)c2cnc(-c3ccccc3)nc21`
(A) 114

----------
- EXPERIMENT: Open-label clinical pharmacokinetic study of oral XBD173 and etifoxine in healthy volunteers (plasma LC-MSMS)
- Format: in vivo, human
- STUDY CONDITIONS: human, plasma, po, 90 mg, 90mg XBD173 single oral dose; 120 mins; participant 3
- Protocol: This was a single centre, open‐label study enrolling 4 adult healthy volunteers (aged 35–65 y) irrespective of rs6971 genotype. Detailed inclusion and exclusion criteria are shown in the supplementary information. […] As a precaution, therefore, a long washout period was chosen. The first dose was taken at the clinical research facility and the participant was monitored for 4 hours. Subsequent doses were taken at home by the participant. On day 7, the participant returned for a final assessment. […]
MEASUREMENT NAME: concentration at 120 min (ng/mL)
Number in ng/mL, nothing else.

(Q) // lookup concentration at 120 min for CCN(Cc1ccccc1)C(=O)Cn1c(=O)n(C)c2cnc(-c3ccccc3)nc21 [XBD173]
(A) 263

----------
- EXPERIMENT: Open-label clinical pharmacokinetic study of oral XBD173 and etifoxine in healthy volunteers (plasma LC-MSMS)
- Type: in vivo, human
- STUDY CONDITIONS: human, plasma, po, 90 mg, 90mg XBD173 single oral dose; 240 mins; participant 1
MEASUREMENT NAME: concentration at 240 min (ng/mL)
Number in ng/mL, nothing else.

(Q) // lookup concentration at 240 min for CCN(Cc1ccccc1)C(=O)Cn1c(=O)n(C)c2cnc(-c3ccccc3)nc21 [XBD173]
(A) 40.4

----------
- EXPERIMENT: Open-label clinical pharmacokinetic study of oral XBD173 and etifoxine in healthy volunteers (plasma LC-MSMS)
- Type: in vivo, human
- STUDY CONDITIONS: human, plasma, po, 90 mg, 90 mg XBD173 single oral dose; participant 4
MEASUREMENT NAME: AUC(0-t) (ng·h/mL)
Number in ng·h/mL, nothing else.

(Q) // lookup AUC(0-t) for `CCN(Cc1ccccc1)C(=O)Cn1c(=O)n(C)c2cnc(-c3ccccc3)nc21`
(A) 345
